Readings of OD at 560 nm for the listed binders
systemUnderTest: T1, human ANGPTL3 (human, UniProt Q9Y5C1 17-460)
T1 construct: Biotinylated in the ELISA assays; also called hANGPTL3; free ANGPTL3
T1 sequence: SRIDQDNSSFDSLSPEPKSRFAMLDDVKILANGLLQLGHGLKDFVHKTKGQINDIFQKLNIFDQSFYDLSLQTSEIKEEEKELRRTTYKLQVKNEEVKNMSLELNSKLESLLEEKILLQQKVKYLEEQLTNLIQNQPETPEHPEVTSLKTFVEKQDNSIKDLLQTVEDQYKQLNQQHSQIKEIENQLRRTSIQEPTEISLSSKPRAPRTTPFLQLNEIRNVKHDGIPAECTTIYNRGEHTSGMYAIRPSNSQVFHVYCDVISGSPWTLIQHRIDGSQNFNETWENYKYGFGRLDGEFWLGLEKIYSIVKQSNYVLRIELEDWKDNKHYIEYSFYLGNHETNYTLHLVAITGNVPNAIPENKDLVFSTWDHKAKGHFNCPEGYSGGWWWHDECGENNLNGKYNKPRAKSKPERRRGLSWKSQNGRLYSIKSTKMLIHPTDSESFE
assayMethodText: ELISA; Ab captured by anti-human Fc; biotinylated antigen at 33.3 nM
Lab book: enter the figure in OD 560 nm, no units written.

Below, each entry is followed by its recorded OD at 560 nm result.
Ab with LC variant having a D33A mutation (SEQ ID NO:22) and a HC of SEQ ID NO:6 (antibody, human IgG4 S228P, kappa, F234A L235A, V domains shown, also called D33A Variant Ab; D33A Ab) VH: QVTLKESGPTLVKPTQTLTLTCTFSGFSLSISGVGVGWIRQPPGKALEWLALIYRNDDKRYSPSLKSRLTITKDTSKNQVVLTLTNMDPVDTATYYCARTYSSGWYGNWFDPWGQGTLVTVSS VL: DIVMTQTPLSLPVTPGEPASISCRSSQSLLDSADGNTYLDWYLQKPGQSPQLLIYMLSYRASGVPDRFSGSGSGTDFTLKISRVEAEDVGIYYCMQRIEFPLTFGGGTKVEIKR    0.067
anti-ANGPTL3/8 complex Ab having a LC of SEQ ID NO:5 and a HC of SEQ ID NO:6 (antibody, human IgG4 S228P, kappa, F234A L235A, V domains shown, In the ELISA assays tested as IgG from CHO supernatants; also called the Ab) VH: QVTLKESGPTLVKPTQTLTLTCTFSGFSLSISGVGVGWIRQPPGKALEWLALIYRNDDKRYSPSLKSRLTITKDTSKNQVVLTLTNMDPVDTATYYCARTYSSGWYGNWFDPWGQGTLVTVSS VL: DIVMTQTPLSLPVTPGEPASISCRSSQSLLDSDDGNTYLDWYLQKPGQSPQLLIYMLSYRASGVPDRFSGSGSGTDFTLKISRVEAEDVGIYYCMQRIEFPLTFGGGTKVEIKR    0.052
Ab with LC variant having a E99Q mutation (SEQ ID NO:25) and a HC of SEQ ID NO:6 (antibody, human IgG4 S228P, kappa, F234A L235A, V domains shown, also called E99Q Variant Ab; E99Q Ab) VH: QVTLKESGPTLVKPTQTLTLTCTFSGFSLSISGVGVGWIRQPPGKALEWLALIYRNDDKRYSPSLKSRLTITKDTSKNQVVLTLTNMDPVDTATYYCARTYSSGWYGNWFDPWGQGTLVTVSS VL: DIVMTQTPLSLPVTPGEPASISCRSSQSLLDSDDGNTYLDWYLQKPGQSPQLLIYMLSYRASGVPDRFSGSGSGTDFTLKISRVEAEDVGIYYCMQRIQFPLTFGGGTKVEIKR    0.069

Switching to the query record.
Inquiry: Indicate its recorded OD at 560 nm; the binder in question is Ab with LC variant having a D31S mutation (SEQ ID NO:21) and a HC of SEQ ID NO:6 (antibody, human IgG4 S228P, kappa, F234A L235A, V domains shown, also called D31S Variant Ab; D31S Ab) VH: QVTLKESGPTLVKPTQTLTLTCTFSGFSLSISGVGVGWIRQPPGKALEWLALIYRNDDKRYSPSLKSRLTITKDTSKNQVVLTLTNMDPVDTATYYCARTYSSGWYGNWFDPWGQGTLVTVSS VL: DIVMTQTPLSLPVTPGEPASISCRSSQSLLSSDDGNTYLDWYLQKPGQSPQLLIYMLSYRASGVPDRFSGSGSGTDFTLKISRVEAEDVGIYYCMQRIEFPLTFGGGTKVEIKR
Reply text: 0.069
